# STUDY_TARGET: equine FcRn (large alpha subunit p51) / equine beta-2-microglobulin complex, biotinylated (equine) (UniProt P30441)
# METHOD_SUMMARY: SPR (Biacore), pH 6
Measured Kd by item
QUANTITY: Kd (nM)

BINDER	UNIT_ABBREVIATION	RECORDED_RESULT
equine IgG4 A426M (antibody, part only; not given: Variable domains, not shown: another chain or arm of the molecule) constant: ASTTAPKVFPLASHSAATSGSTVALGCLVSSYFPEPVTVSWNSGALTSGVHTFPSVLQSSGLYSLSSMVTVPASSLKSQTYICNVAHPASSTKVDKKIVIKECNGGCPAECLQVGPSVFIFPPKPKDVLMISRTPTVTCVVVDVGHDFPDVQFNWYVDGVETHTATTEPKQEQFNSTYRVVSVLPIQHKDWLSGKEFKCKVNNKALPAPVERTISKPTGQPREPQVYVLAPHRDELSKNKVSVTCLVKDFYPTDIDIEWKSNGQPEPETKYSTTPAQLDSDGSYFLYSKLTVETNRWQQGTTFTCMVMHEALHNHYTEKSVSKSPGK	nM	18.5
equine IgG4 Y436A (antibody, part only; not given: variable domains, not shown: another chain or arm of the molecule) constant: ASTTAPKVFPLASHSAATSGSTVALGCLVSSYFPEPVTVSWNSGALTSGVHTFPSVLQSSGLYSLSSMVTVPASSLKSQTYICNVAHPASSTKVDKKIVIKECNGGCPAECLQVGPSVFIFPPKPKDVLMISRTPTVTCVVVDVGHDFPDVQFNWYVDGVETHTATTEPKQEQFNSTYRVVSVLPIQHKDWLSGKEFKCKVNNKALPAPVERTISKPTGQPREPQVYVLAPHRDELSKNKVSVTCLVKDFYPTDIDIEWKSNGQPEPETKYSTTPAQLDSDGSYFLYSKLTVETNRWQQGTTFTCAVMHEALHNHATEKSVSKSPGK	nM	21.6
equine IgG1 Y436D (antibody, part only; not given: variable domains, not shown: another chain or arm of the molecule) constant: ASTTAPKVFALAPGCGTTSDSTVALGCLVSGYFPEPVKVSWNSGSLTSGVHTFPSVLQSSGFYSLSSMVTVPASTWTSETYICNVVHAASNFKVDKRIEPIPDNHQKVCDMSKCPKCPAPELLGGPSVFIFPPNPKDTLMITRTPEVTCVVVDVSQENPDVKFNWYMDGVEVRTATTRPKEEQFNSTYRVVSVLRIQHQDWLSGKEFKCKVNNQALPQPIERTITKTKGRSQEPQVYVLAPHPDELSKSKVSVTCLVKDFYPPEINIEWQSNGQPELETKYSTTQAQQDSDGSYFLYSKLSVDRNRWQQGTTFTCGVMHEALHNHDTQKNVSKNPGK	nM	28.4
equine IgG1 N434C (antibody, part only; not given: variable domains, not shown: another chain or arm of the molecule) constant: ASTTAPKVFALAPGCGTTSDSTVALGCLVSGYFPEPVKVSWNSGSLTSGVHTFPSVLQSSGFYSLSSMVTVPASTWTSETYICNVVHAASNFKVDKRIEPIPDNHQKVCDMSKCPKCPAPELLGGPSVFIFPPNPKDTLMITRTPEVTCVVVDVSQENPDVKFNWYMDGVEVRTATTRPKEEQFNSTYRVVSVLRIQHQDWLSGKEFKCKVNNQALPQPIERTITKTKGRSQEPQVYVLAPHPDELSKSKVSVTCLVKDFYPPEINIEWQSNGQPELETKYSTTQAQQDSDGSYFLYSKLSVDRNRWQQGTTFTCGVMHEALHCHYTQKNVSKNPGK	nM	42.6

src = patent US20260070987A1
